experiment: chemical genetic growth profiling, strain panel (AID 1159580);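 note: tested at 20 µM; growth read once vehicle control cultures reached saturation at 30 °C; 1 = growth at the plate median or of vehicle wells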; details: S. cerevisiae deletion strains, growth OD, locus YLR268W, strain sec22, stronger effect = lower value
Among all 5,500 compounds or so, about 2,000 (36%) were called active. Roughly 18% stayed inconclusive and do not appear here. This is one part of the list.
quantity.kind: normalized growth
Numbers only.

Known normalized growth results, listed for orientation:
1) CC(=O)O[C@H]1CC[C@@]2(C)C(CC[C@]3(C)C2CC=C2C4CC(C)(C)CC[C@]4(C)CC[C@]23C)C1(C)C (some centres undefined) :: 1.02
2) COc1c(CC(=O)c2cc3c(cc2O)OC(C)(C)C(O)C3)ccc2c1C=CC(C)(C)O2 (centres undefined) :: 0.977
3) C[C@@H]1OC(O[C@H]2C(O[C@H]3CC[C@@]4(C)C(CC[C@]5(C)C4CC=C4C6CC(C)(C)CC[C@]6(C(=O)O)CC[C@]45C)[C@]3(C)CO)OC[C@H](O)[C@@H]2O)[C@H](O)[C@H](O)[C@H]1O (some centres undefined) :: 0.0705

Now look at this one.
q: Given the compound NCCC(=O)N[C@@H](Cc1cnc[nH]1)C(=O)O , what is its reported normalized growth?
a: 0.982

---

experiment: chemical genetic growth profiling, strain panel (AID 1159580); conditions: S. cerevisiae deletion strains, growth OD, locus YGR078C, strain PAC10
Screen size: about 5,500 compounds; about 2,000 (36%) were called active. About 18% were inconclusive and are not listed. No stated cut-off is given here; in the data, active means normalized growth mostly below about 0.91 (no sharp cut-off); inconclusive means no clear call, values can overlap the other calls; inactive means mostly above about 0.92. Some of the results follow.
Hi! Could you answer with just one of these? active, inactive

# example entries with known answers
1. C=C1SC(=Nc2cccc(OC)c2)N(C(=O)C(c2ccccc2)C2CCCC2)C1(C)C (configuration not stated) :: inactive
2. O=C(Nc1ccc(Br)cc1Cl)C(Cl)(Cl)Cl :: inactive
3. Cc1cc(C)cc(NC(=S)N2CCN(c3ncc(C(F)(F)F)cc3Cl)CC2)c1 :: inactive
4. CC12CCC3C4CCC(=O)C=C4CCC3C1CCC2=O (configuration not stated) :: inactive
5. COc1ccc2c(c1)c(CC(=O)N1CCOCC1)c(C)n2C(=O)c1ccc(Cl)cc1 :: inactive

q: Recorded test outcome, item O=S(=O)(CCN1CCOCC1)c1ccc(Cl)cc1
a: inactive

q: Okay, and CCOP(=S)(OCC)Oc1nc(Cl)c(Cl)cc1Cl ?
a: inactive

q: Okay, and Cc1cc(O)c2c(c1)Cc1cccc(O)c1C2=O ?
a: inactive

q: Okay, and CC(C)=CCCC1(C)C=Cc2c(O)c3c(c(CC=C(C)C)c2O1)OC12C(=CCCC1C(C)(C)O[C@@]2(C/C=C(\C)C(=O)O)C(=O)O)C3=O (some centres not stated) ?
a: active

q: Okay, and C[C@]12CCC(=O)C=C1CCC1C2[C@@H](O)C[C@@]2(C)C1CC[C@]2(O)C(=O)CO (some centres not stated) ?
a: inactive

q: Okay, and C/C(O)=C(\C#N)C(=O)Nc1cc(Br)ccc1Br ?
a: inactive

q: Okay, and CCOP(=S)(OCC)Oc1cc(C)nc(C(C)C)n1 ?
a: inactive

q: Okay, and Cc1c(S(=O)(=O)c2ccc(Cl)cc2)cnc2cc(C(C)(C)C)nn12 ?
a: inactive

q: Okay, and CC1(C)CC[C@]2(C)CC[C@]3(C)C(=CCC4[C@@]5(C)CC[C@H](O)C(C)(C)C5CC[C@]43C)C2C1 (some centres not stated) ?
a: inactive

q: Okay, and COc1cc(OC)nc(N)n1 ?
a: inactive

q: Okay, and O=[N+]([O-])c1cc(Cl)ccc1S(=O)(=O)c1ccccc1 ?
a: inactive

q: Okay, and Clc1ccccc1C(c1ccccc1)(c1ccccc1)n1ccnc1 ?
a: active

q: Okay, and CC(C)c1ccccc1NC(=S)N1CCN(c2ncc(C(F)(F)F)cc2Cl)CC1 ?
a: inactive

q: Okay, and O=[N+]([O-])c1ccc(S(=O)(=O)c2ccc(Cl)cc2)cc1O ?
a: active

q: Okay, and CC1(C)CC[C@@]2(C(=O)O)C(C1)C1=CCC3[C@@]4(C)CC[C@H](O)C(C)(C)C4CC[C@@]3(C)[C@]1(C)C[C@@H]2O (some centres not stated) ?
a: inactive

q: Okay, and S=c1[nH]nc(SCCSc2n[nH]c(=S)s2)s1 ?
a: inactive

q: Okay, and FC(F)(F)c1cnc(N2CCN(C(=S)Nc3ccccc3)CC2)c(Cl)c1 ?
a: inactive

---

Assignment: determine reported normalized growth for the given compounds.
assay: chemical genetic growth profiling, strain panel (AID 1159580);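 note: tested at 20 µM; growth read once vehicle control cultures reached saturation at 30 °C; 1 = growth at the plate median or of vehicle wells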; details: S. cerevisiae strains, growth OD, strain wild type, stronger effect = lower value
About 2,000 (36%) of roughly 5,500 compounds were called active. About 18% were inconclusive and are not listed. This is one part of the list.
Answers are plain numbers.

Known normalized growth results, listed for orientation:
1) COc1cccc(OC)c1OCCNCC1COc2ccccc2O1 (stereo unspecified) :: 1.01
2) COc1ccccc1C1OC(=O)CC1C(=O)O (stereo unspecified) :: 1.02
3) N#CC(NCc1ccccc1)c1ccc(Cl)c(Cl)c1 (stereo unspecified) :: 1

Kindly give each listed record's normalized growth.
1. CC(C)CC(N(C)C)C1(c2ccc(Cl)cc2)CCC1 (stereo unspecified)
2. O=C(O)/C=C1\CCCc2ccccc2C1O (stereo unspecified)
3. NNc1nncc2ccccc12
4. COc1ccc2c3c([nH]c2c1)C(C)=NCC3
5. CC(C)=CCCC1(C)C=Cc2c(O)c3c(c(CC=C(C)C)c2O1)OC12C(=CC4CC1C(C)(C)OC2(C/C=C(/C)C(=O)O)C4=O)C3=O (stereo unspecified)
6. CC(C)=CCCC1(C)C=Cc2c(O)c3c(c(CC=C(C)C)c2O1)OC12C(CC4CC1C(C)(C)OC2(C/C=C(/C)C(=O)O)C4O)C3=O (stereo unspecified)
7. CNCc1ccccc1

a:
0.98
0.991
1.01
1.01
0.78
0.968
0.992

q: Given the compound CC1(C)CC[C@]2(C)CC[C@]3(C)C(=CCC4[C@@]5(C)CC[C@H](O)C(C)(C)C5CC[C@]43C)C2C1 (stereo partly specified) , what is its reported normalized growth?
a: 1.02

---

assay: chemical genetic growth profiling, strain panel (AID 1159580);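 note: tested at 20 µM; growth read once vehicle control cultures reached saturation at 30 °C; 1 = growth at the plate median or of vehicle wells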; conditions: S. cerevisiae deletion strains, growth OD, locus YMR058W, strain fet3, stronger effect = lower value
About 2,000 (36%) of roughly 5,500 compounds were called active. Not shown: some 18% with an inconclusive outcome. This is one part of the list.
quantity.kind: normalized growth
Numbers only.

Kindly give each listed record's normalized growth.
1. FC(F)(F)c1ccccc1-n1ccnc1
2. C#C[C@]1(OC(C)=O)CCC2C3CCC4=CC(=O)CC[C@@H]4C3CC[C@@]21C (stereo partly specified)

a:
0.98
1

Kindly give each listed record's normalized growth.
1. Clc1ccccc1C(c1ccccc1)(c1ccccc1)n1ccnc1
2. Cc1cc(-n2c(=O)[nH]c(=O)n(C)c2=O)ccc1Oc1ccc(SC(F)(F)F)cc1
3. C#C[C@]1(O)CCC2C3CCC4=CC(=O)CC[C@@H]4C3CC[C@@]21CC (stereo partly specified)
4. O=C(Nc1ccc(C(=O)O)c(O)c1)c1ccccc1

a:
0.0615
0.705
0.987
0.984

---

experiment: chemical genetic growth profiling, strain panel (AID 1159580);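 note: tested at 20 µM; growth read once vehicle control cultures reached saturation at 30 °C; 1 = growth at the plate median or of vehicle wells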; conditions: S. cerevisiae deletion strains, growth OD, locus YJL164C, strain tpk1, stronger effect = lower value
About 2,000 (36%) of roughly 5,500 compounds were called active. Not shown: some 18% with an inconclusive outcome. The list shows a part of the results.
Assignment: determine reported normalized growth for the given compounds.
Give bare numbers.

Known normalized growth results, listed for orientation:
1. O=C1C(O)=C(O)C(=O)C(O)=C1O :: 1
2. C[C@@H]1CC[C@H]2[C@@H](C)C(=O)O[C@@H]3O[C@@]4(C)CC[C@@H]1[C@]32OO4 :: 0.871
3. Cc1ccc(-c2cc(C(F)(F)F)nn2-c2ccc(S(N)(=O)=O)cc2)cc1 :: 1.03
4. CC(C)(Oc1ccc(CCNC(=O)c2ccc(Cl)cc2)cc1)C(=O)O :: 0.986
5. CNC(=O)O/N=C\C(C)(C)SC :: 1.01
6. COC(=O)Nc1nc2ccc(S(=O)c3ccccc3)cc2[nH]1 (stereo unspecified) :: 1.01
7. CC(CC(=O)C(O)C(C)(C)O)C1C(=O)CC2(C)C3=CCC4C(C)(C)C(OC5OCC(O)C(O)C5O)CCC45CC35C(O)CC12C (stereo unspecified) :: 1.03
8. C[C@@H]1CC[C@H]2[C@@H](C)C(O)O[C@@H]3O[C@@]4(C)CC[C@@H]1[C@]32OO4 (stereo partly specified) :: 0.248

Kindly give each listed record's normalized growth.
1. COc1cc(N)c(Cl)cc1C(=O)NC1CCN(Cc2ccccc2)CC1
2. CCCOc1ccccc1-c1nc2n[nH]nc2c(=O)[nH]1
3. Cc1cc(C(C)(C)C)c(O)c(C(C)(C)C)c1

a:
1
0.987
0.95
